FYI, the data here is from PubChem BioAssay (NCI).

System: 786-0 renal
Assay: NCI-60 one-dose screen, 48 h
Details: 10 µM unless noted
Description: Cells are grown in 96 well plates and exposed to the test compound for 48 hours. Compounds are tested at a single concentration, which is 10^-5 M for most compounds. The reported endpoint is percent growth (GI% or GIPRCNT), where numbers from 0 - 100% represent growth inhibition, and numbers from -100% - 0 represent cell death. For example, a value of 40 represents 60% growth inhibition. A value of 0 means no net growth occurred over the course of the experiment. […]
Compounds without any hit were thinned out: in the full panel of roughly 83,000, 20% have a hit. Calls of active or inactive are those of the source. The calls were made as follows: active = growth percent below 10; inactive = the rest.
Classes used: active, inactive

# compound, assigned_label
data = [
    ("CN(CCSSCCN1CCOCC1)C(=O)Oc1cc2c(c3ccccc13)[C@H](CCl)CN2C(=O)c1cc2cc(OCCCN3CCC3)ccc2[nH]1", "active"),
    ("CC1=C(C(=O)Nc2ccccc2)C(c2ccc3ccccc3c2)n2c(nc3ccccc32)N1 (centres undefined)", "inactive"),
    ("COc1c2c(cc3c1C(CCc1ccccc1)N(C)CC3)OCO2 (centres undefined)", "inactive"),
    ("CC(=O)C[n+]1cccc2c3ccccc3ccc21", "inactive"),
    ("O=C(Nc1nc2ccccc2s1)Nc1ccccc1Cl", "inactive"),
    ("Clc1ccc(-c2nc3c4c(-c5ccccc5)c(-c5ccccc5)n(Cc5ccccc5)c4ncn3n2)cc1", "active"),
    ("CN(C)c1nc(NCCNS(=O)(=O)c2ccc(C3=Nc4c(N)nc(N)nc4NC(c4ccc(C(F)(F)F)cc4)C3)cc2)nc(N2CCOCC2)n1 (centres undefined)", "inactive"),
    ("COc1cc(/C=C/C(=O)c2cnn(-c3cc(=O)[nH]c4ccc(Br)cc34)c2C)cc(OC)c1OC", "active"),
    ("COc1cc(CNC(=O)C[C@H](C)CCC=C(C)C)ccc1OCc1cn(-c2ccc(Cl)cc2Cl)nn1", "inactive"),
]
